The reported numbers originate from ChEMBL document CHEMBL1949598.

System: MDR1 (P-gp), human
experiment: Apparent permeability from apical to basolateral side in MDCK2 cells expressing human MDR1 at 10 uM after 60 mins
Format: ADME, cell-based, Canis lupus familiaris, MDCK-II
experimental setup: dog, MDCK-MDR1
observation type: Papp A→B at 1 h, 10 µM

Cc1nc(Cl)nc(Cl)c1CCCl :: 35.8 ×10⁻⁶ cm/s

Query compound follows.
QUERY: Indicate its recorded Papp A→B at 1 h, 10 µM; the compound in question is ClCCc1cnc(Cl)nc1Cl
RESULT: 20.8 ×10⁻⁶ cm/s

====

System: HCT-116
experiment: Cytotoxicity against human HCT116 cells up to 100 uM after 72 hrs by MTT assay
Assay type: functional, cell-based
The source made the active and inactive calls. The calls are words filed in the database; no cut-off is given here.
observation type: growth inhibition (GI)

Answered examples (5):
COCn1c(=O)[nH]cc(CCO)c1=O :: inactive
COc1ncc2c(n1)OCC2 :: inactive
COc1nc(Cl)ncc1CCO :: inactive
COc1ncc(CCO)c(OC)n1 :: inactive
COCn1cc(CCF)c(=O)[nH]c1=O :: inactive

QUERY: Answer with the recorded growth inhibition (GI) for the compound listed here: COCn1c(=O)[nH]cc(CCOC(C)=O)c1=O
RESULT: inactive

QUERY: State its growth inhibition (GI): COCn1cc(CCO)c(OC)nc1=O
RESULT: inactive

====

experiment: Metabolic stability in human plasma assessed as compound remaining at 5 uM after 24 hrs by LC/MS/MS analysis
Type: ADME, cell-free
experimental setup: read-out: Stability
Consider the following molecules and their measured remaining at 24 h, 5 µM readings.

ClCCc1cnc(Cl)nc1Cl :: 0%

Turning to the following molecule.
QUERY: Respond only with remaining at 24 h, 5 µM recorded for Cc1nc(Cl)nc(Cl)c1CCCl
RESULT: 20%

====

experiment: Metabolic stability in rat plasma assessed as compound remaining at 5 uM after 24 hrs by LC/MS/MS analysis
Type: ADME, cell-free
experimental setup: read-out: Stability
observation type: remaining at 24 h, 5 µM

Cc1nc(Cl)nc(Cl)c1CCCl :: 3%

QUERY: Give the reported value of remaining at 24 h, 5 µM for this record: ClCCc1cnc(Cl)nc1Cl
RESULT: 0%

====

experiment: Half life in rat plasma at 5 uM
Type: ADME
observation type: half-life at 5 µM
Reply with a number, then the unit it belongs to.

ClCCc1cnc(Cl)nc1Cl :: 0.4 h

For the next question, use this compound.
QUERY: Name the recorded half-life at 5 µM of the item Cc1nc(Cl)nc(Cl)c1CCCl in your answer.
RESULT: 3.07 h

====

experiment: Metabolic stability in human liver microsomes assessed as compound remaining at 1 uM after 60 mins by LC/MS/MS analysis
Type: ADME, Microsome
experimental setup: read-out: Stability
A collection of compounds and their measured remaining at 1 h, 1 µM
Reply numerically in %, unit not repeated.

QUERY: Please give measured remaining at 1 h, 1 µM of the following entry: ClCCc1cnc(Cl)nc1Cl
RESULT: 65

QUERY: Please report remaining at 1 h, 1 µM for the following compound: Cc1nc(Cl)nc(Cl)c1CCCl
RESULT: 76

====

Test system: MCF7
experiment: Cytotoxicity against human MCF7 cells up to 100 uM after 72 hrs by MTT assay
Type: functional, cell-based
Activity calls are given as the source filed them. The calls are words filed in the database; no cut-off is given here.
observation type: growth inhibition (GI)

COCn1cc(CCO)c(OC)nc1=O :: inactive
COCn1cc(CCO)c(=O)n(COC)c1=O :: inactive
